- EXPERIMENTAL SETUP: in ethanol, 303.15 K
ASSAY METRIC: solubility (mole fraction)
Reply with the value as a number alone.

Entry CC(C)(C)c1cc(CCC(=O)NCCCCCCNC(=O)CCc2cc(C(C)(C)C)c(O)c(C(C)(C)C)c2)cc(C(C)(C)C)c1O — recorded solubility (mole fraction) = 0.0126

###

- EXPERIMENTAL SETUP: in n-propanol, 303.15 K
ASSAY METRIC: solubility (mole fraction)
Response field accepts a number only; no unit should be typed.

// sample CC(C)(C)c1cc(CCC(=O)NCCCCCCNC(=O)CCc2cc(C(C)(C)C)c(O)c(C(C)(C)C)c2)cc(C(C)(C)C)c1O , its solubility (mole fraction) was 0.0128

###

- EXPERIMENTAL SETUP: in ethyl formate, 323.15 K
ASSAY METRIC: solubility (mole fraction)
// no unit, no text: just the number

The compound listed as CC(C)(C)c1cc(CCC(=O)NCCCCCCNC(=O)CCc2cc(C(C)(C)C)c(O)c(C(C)(C)C)c2)cc(C(C)(C)C)c1O has a reported solubility (mole fraction) of 0.00879

###

- EXPERIMENTAL SETUP: in ethyl formate, 288.15 K
ASSAY METRIC: solubility (mole fraction)
Please reply with the value in numeric form only.

In plain terms, CC(C)(C)c1cc(CCC(=O)NCCCCCCNC(=O)CCc2cc(C(C)(C)C)c(O)c(C(C)(C)C)c2)cc(C(C)(C)C)c1O has a documented solubility (mole fraction) of 0.00205

###

- EXPERIMENTAL SETUP: in n-propanol, 298.15 K
ASSAY METRIC: solubility (mole fraction)
The response must contain the number and no unit.

CC(C)(C)c1cc(CCC(=O)NCCCCCCNC(=O)CCc2cc(C(C)(C)C)c(O)c(C(C)(C)C)c2)cc(C(C)(C)C)c1O yielded solubility (mole fraction) of 0.0116

###

- EXPERIMENTAL SETUP: in ethyl formate, 298.15 K
ASSAY METRIC: solubility (mole fraction)
Answer field: number only, no words.

Entry CC(C)(C)c1cc(CCC(=O)NCCCCCCNC(=O)CCc2cc(C(C)(C)C)c(O)c(C(C)(C)C)c2)cc(C(C)(C)C)c1O — recorded solubility (mole fraction) = 0.00254

###

- EXPERIMENTAL SETUP: in acetone, 303.15 K
ASSAY METRIC: solubility (mole fraction)
Number, no unit, nothing else.

The measured solubility (mole fraction) associated with CC(C)(C)c1cc(CCC(=O)NCCCCCCNC(=O)CCc2cc(C(C)(C)C)c(O)c(C(C)(C)C)c2)cc(C(C)(C)C)c1O reads 0.00419

###

- EXPERIMENTAL SETUP: in acetone, 288.15 K
ASSAY METRIC: solubility (mole fraction)
Just the number, please, no unit attached.

Just so you know, measured solubility (mole fraction) for CC(C)(C)c1cc(CCC(=O)NCCCCCCNC(=O)CCc2cc(C(C)(C)C)c(O)c(C(C)(C)C)c2)cc(C(C)(C)C)c1O came out at 0.00257

###

- EXPERIMENTAL SETUP: in ethanol, 323.15 K
ASSAY METRIC: solubility (mole fraction)

Entry CC(C)(C)c1cc(CCC(=O)NCCCCCCNC(=O)CCc2cc(C(C)(C)C)c(O)c(C(C)(C)C)c2)cc(C(C)(C)C)c1O ; solubility (mole fraction) = 0.0264

###

- EXPERIMENTAL SETUP: in isopropanol, 313.15 K
ASSAY METRIC: solubility (mole fraction)
Just the number, please, no unit after it.

The compound listed as CC(C)(C)c1cc(CCC(=O)NCCCCCCNC(=O)CCc2cc(C(C)(C)C)c(O)c(C(C)(C)C)c2)cc(C(C)(C)C)c1O has a reported solubility (mole fraction) of 0.00872

###

- EXPERIMENTAL SETUP: in n-propanol, 308.15 K
ASSAY METRIC: solubility (mole fraction)

// solubility (mole fraction) value for CC(C)(C)c1cc(CCC(=O)NCCCCCCNC(=O)CCc2cc(C(C)(C)C)c(O)c(C(C)(C)C)c2)cc(C(C)(C)C)c1O : 0.0153

###

- EXPERIMENTAL SETUP: in methyl acetate, 318.15 K
ASSAY METRIC: solubility (mole fraction)
Format: numeric value only, no unit, no commentary.

Lab book: solubility (mole fraction) of CC(C)(C)c1cc(CCC(=O)NCCCCCCNC(=O)CCc2cc(C(C)(C)C)c(O)c(C(C)(C)C)c2)cc(C(C)(C)C)c1O noted as 0.00359

###

- EXPERIMENTAL SETUP: in ethyl formate, 313.15 K
ASSAY METRIC: solubility (mole fraction)
Number only, please.

Summary for this molecule, CC(C)(C)c1cc(CCC(=O)NCCCCCCNC(=O)CCc2cc(C(C)(C)C)c(O)c(C(C)(C)C)c2)cc(C(C)(C)C)c1O : solubility (mole fraction) is 0.00501
